The reported numbers originate from patent US10322112B2.

Biological target: LasR (Pseudomonas aeruginosa, UniProt P25084)
Construct: expressed in transfected cells; host or cells: E. coli JLD271
Sequence (P25084 whole entry): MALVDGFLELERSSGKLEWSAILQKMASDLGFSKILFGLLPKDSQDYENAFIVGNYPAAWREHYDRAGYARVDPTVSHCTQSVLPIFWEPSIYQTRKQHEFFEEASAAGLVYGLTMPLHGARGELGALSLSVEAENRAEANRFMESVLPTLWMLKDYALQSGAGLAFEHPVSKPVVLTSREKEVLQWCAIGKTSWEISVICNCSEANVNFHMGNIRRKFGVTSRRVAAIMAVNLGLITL
Experiment: E. coli reporter gene primary agonism assay, LasR
Format: cell-based
Conditions: compounds at 100 mm; E. coli reporter strain JLD271/pJN105L/pSC11; 100 mm OdDHL = 100%; error ±10%
Classify as follows. Reported Activation [%] LasR greater than or equal to 20%: Y. Reported Activation [%] LasR below: N.

Compound	Study System	Answer Label
N#Cc1cccc(CC(=O)N[C@H]2CCOC2=O)c1	LasR (Pseudomonas aeruginosa, UniProt P25084)	Y
O=C(Cc1ccc(F)cc1)N[C@H]1CCOC1=O	LasR (Pseudomonas aeruginosa, UniProt P25084)	N
O=C(Cc1cccc(I)c1)N[C@H]1CCOC1=O	LasR (Pseudomonas aeruginosa, UniProt P25084)	Y
O=C(CCc1ccc([N+](=O)[O-])cc1)N[C@H]1CCOC1=O	LasR (Pseudomonas aeruginosa, UniProt P25084)	Y
COc1cccc(CC(=O)N[C@H]2CCOC2=O)c1 [E2]	LasR (Pseudomonas aeruginosa, UniProt P25084)	Y
O=C(Cc1cccc(Cl)c1)N[C@H]1CCOC1=O	LasR (Pseudomonas aeruginosa, UniProt P25084)	Y
C=CCCC(=O)N[C@H]1CCOC1=O	LasR (Pseudomonas aeruginosa, UniProt P25084)	Y
O=C(CC1CCCC1)N[C@H]1CCOC1=O	LasR (Pseudomonas aeruginosa, UniProt P25084)	N
CSc1cccc(CC(=O)N[C@H]2CCOC2=O)c1	LasR (Pseudomonas aeruginosa, UniProt P25084)	Y
O=C(Cc1ccccc1)N[C@H]1CCOC1=O	LasR (Pseudomonas aeruginosa, UniProt P25084)	N
O=C(N[C@H]1CCOC1=O)C1CCCC1	LasR (Pseudomonas aeruginosa, UniProt P25084)	N
O=C(CCc1cccc(Br)c1)N[C@H]1CCOC1=O	LasR (Pseudomonas aeruginosa, UniProt P25084)	Y

---

Target: RhlR (Pseudomonas aeruginosa)
Construct: expressed in transfected cells; host or cells: E. coli JLD271
Assay: E. coli reporter gene primary agonism assay, RhlR
Format: cell-based
Details: compounds at 100 mm; 900 mm BHL = 100%; error ±10%; selected data reproduced from Welsh et al., 2015

Chemical Structure	Activation [%] RhlR (%)
O=C(Cc1cccc(Cl)c1)N[C@H]1CCOC1=O	82
O=C(Cc1ccccc1)N[C@H]1CCOC1=O	84
O=C(CC1CCCC1)N[C@H]1CCOC1=O	79
O=C(CCc1ccc([N+](=O)[O-])cc1)N[C@H]1CCOC1=O	69
O=C(CCc1ccc(Cl)cc1)N[C@H]1CCOC1=O	64
O=C(Cc1cccc(I)c1)N[C@H]1CCOC1=O	63

---

The compounds listed here are annotated with their Activation [%] RhlR.
Target: RhlR (Pseudomonas aeruginosa)
Construct: expressed in transfected cells; host or cells: E. coli JLD271
Test: E. coli reporter gene primary agonism assay, RhlR
Type: cell-based
Conditions: compounds at 100 mm; 900 mm BHL = 100%; error ±10%; selected data reproduced from Welsh et al., 2015

Compound	Activation [%] RhlR [%]
O=C(Cc1ccccc1F)N[C@H]1CCOC1=O	66
Cc1cccc(CC(=O)N[C@H]2CCOC2=O)c1 [E1]	69
O=C(Cc1cccc(F)c1)N[C@H]1CCOC1=O	79
CSc1cccc(CC(=O)N[C@H]2CCOC2=O)c1	70
O=C(N[C@H]1CCOC1=O)C1CCCC1	91
N#Cc1cccc(CC(=O)N[C@H]2CCOC2=O)c1	67

---

Target: RhlR (Pseudomonas aeruginosa)
Assay: P. aeruginosa reporter assay, RhlR agonism (native ligand)
pEC50: −log10 of the molar value.

Compound	pEC50
CCCC(=O)N[C@H]1CCOC1=O [BHL, N-butyryl L-homoserine lactone, reference compound]	~5.10

---

Target: RhlR (Pseudomonas aeruginosa, UniProt P54292)
Construct: expressed in transfected cells; host or cells: E. coli JLD271
Sequence (P54292 whole entry): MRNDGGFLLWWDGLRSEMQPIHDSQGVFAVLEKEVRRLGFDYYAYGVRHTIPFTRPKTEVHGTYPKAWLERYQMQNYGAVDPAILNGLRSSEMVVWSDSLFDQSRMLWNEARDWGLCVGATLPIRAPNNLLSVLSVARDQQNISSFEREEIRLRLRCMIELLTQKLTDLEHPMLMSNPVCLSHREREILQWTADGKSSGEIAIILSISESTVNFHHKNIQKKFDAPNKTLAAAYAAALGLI
Assay: E. coli reporter gene primary agonism assay, RhlR
Format: cell-based
Details: compounds at 100 mm; 900 mm BHL = 100%; error ±10%; selected data reproduced from Welsh et al., 2015
The molecules listed here are annotated with their Activation [%] RhlR.
Measured Endpoint: Activation [%] RhlR (%)

Molecule	Study System	Measured Endpoint	Recorded Value
O=C(CCc1cccc(Br)c1)N[C@H]1CCOC1=O [E31]	RhlR (Pseudomonas aeruginosa, UniProt P54292)	Activation [%] RhlR	65
O=C(Cc1ccccc1I)N[C@H]1CCOC1=O [C12]	RhlR (Pseudomonas aeruginosa, UniProt P54292)	Activation [%] RhlR	70
O=C(Cc1cccc(Br)c1)N[C@H]1CCOC1=O [C8]	RhlR (Pseudomonas aeruginosa, UniProt P54292)	Activation [%] RhlR	80
COc1cccc(CC(=O)N[C@H]2CCOC2=O)c1 [E2]	RhlR (Pseudomonas aeruginosa, UniProt P54292)	Activation [%] RhlR	86
C=CCCC(=O)N[C@H]1CCOC1=O [D8]	RhlR (Pseudomonas aeruginosa, UniProt P54292)	Activation [%] RhlR	81
O=C(Cc1ccc(F)cc1)N[C@H]1CCOC1=O [C2]	RhlR (Pseudomonas aeruginosa, UniProt P54292)	Activation [%] RhlR	71

---

Target: QscR (Pseudomonas aeruginosa)
Sequence (G3XD77 entry or part of it): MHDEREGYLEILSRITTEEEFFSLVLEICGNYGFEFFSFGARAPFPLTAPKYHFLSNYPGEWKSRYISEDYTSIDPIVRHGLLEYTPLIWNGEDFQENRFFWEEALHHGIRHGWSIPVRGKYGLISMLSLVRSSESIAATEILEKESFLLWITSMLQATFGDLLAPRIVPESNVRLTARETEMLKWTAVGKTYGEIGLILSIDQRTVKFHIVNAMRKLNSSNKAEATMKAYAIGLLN
Assay type: cell-based
Set-up: expressed in transfected cells; host or cells: E. coli JLD271
Conditions: compounds at 100 mm against 15 nm OdDHL; E. coli reporter strain JLD271/pJN105Q/pSC11-Q; untreated culture = 100%; error ±10%
Text: Construction of pSC11-Q: A 348 bp fragment spanning the upstream region of PA1897 (¢304 to +43 relative to the PA1897 translationalstart codon) was amplified from plasmid pJL101*by using primers 5′-GAATAT GGATCC TCTCTC CGCAGA TACCTG-3′ (BamHI site underlined) SEQ ID NO:5 and 5′-GCTATT GAATTC TGAAGA TGAATA GCGCCAC-3′ (EcoRI site underlined) SEQ ID NO:6. The PCR-generated fragment was digested with EcoRI and BamHI and subsequently ligated into EcoRI/BamHI-digested pPROBE-KT to generate pPROBE-KQ2. […]

Compound	Study System	Result Units	Inhibition [%] QsCR
Cc1ccc(OCC(=O)N[C@H]2CCOC2=O)cc1 [E15]	QscR (Pseudomonas aeruginosa)	%	33
CSc1ccc(CCC(=O)N[C@H]2CCOC2=O)cc1 [E34]	QscR (Pseudomonas aeruginosa)	%	−190
O=C(Cc1ccc(Cl)c(Cl)c1)N[C@H]1CCOC1=O [E11]	QscR (Pseudomonas aeruginosa)	%	15
O=C(Cc1ccc(I)cc1)N[C@H]1CCOC1=O [C10]	QscR (Pseudomonas aeruginosa)	%	−79
O=C(Cc1ccc(SC(F)(F)F)cc1)N[C@H]1CCOC1=O [E8]	QscR (Pseudomonas aeruginosa)	%	40
O=C(Cc1c(F)c(F)c(F)c(F)c1F)N[C@H]1CCOC1=O [C16]	QscR (Pseudomonas aeruginosa)	%	74
O=C(COc1ccc(I)cc1)N[C@H]1CCOC1=O [compound 2]	QscR (Pseudomonas aeruginosa)	%	18
O=C(Cc1ccc(C(F)(F)F)cc1)N[C@H]1CCOC1=O [C20]	QscR (Pseudomonas aeruginosa)	%	26
O=C(Cc1ccc([N+](=O)[O-])cc1)N[C@H]1CCOC1=O [C13]	QscR (Pseudomonas aeruginosa)	%	14
O=C(Cc1ccc2ccccc2c1)N[C@H]1CCOC1=O [E12]	QscR (Pseudomonas aeruginosa)	%	60
O=C(COc1ccc(Br)cc1)N[C@H]1CCOC1=O [E21]	QscR (Pseudomonas aeruginosa)	%	20
COc1ccc(OCC(=O)N[C@H]2CCOC2=O)cc1 [E17]	QscR (Pseudomonas aeruginosa)	%	36
O=C(COc1ccc(C(F)(F)F)cc1)N[C@H]1CCOC1=O [E23]	QscR (Pseudomonas aeruginosa)	%	22
O=C(COc1ccc(OC(F)(F)F)cc1)N[C@H]1CCOC1=O [D15]	QscR (Pseudomonas aeruginosa)	%	4
O=C(Cc1ccc(Br)cc1)N[C@@H]1CCOC1=O [B4]	QscR (Pseudomonas aeruginosa)	%	37
O=C(CCCC1CCCCC1)N[C@H]1CCOC1=O [S6]	QscR (Pseudomonas aeruginosa)	%	34
Cc1ccc(CC(=O)N[C@H]2CCOC2=O)cc1 [C19]	QscR (Pseudomonas aeruginosa)	%	64
CSc1ccc(CC(=O)N[C@H]2CCOC2=O)cc1 [E6]	QscR (Pseudomonas aeruginosa)	%	24

---

The molecules listed here are annotated with their Activation [%] QscR.
Target: QscR (Pseudomonas aeruginosa)
Conditions: compounds at 100 mm; E. coli reporter strain JLD271/pJN105Q/pSC11-Q; 100 mm OdDHL = 100%; error ±10%

Molecule	Study System	Activation [%] QscR [%]
COc1cccc(CC(=O)N[C@H]2CCOC2=O)c1 [E2]	QscR (Pseudomonas aeruginosa)	26
O=C(CCc1cccc(Br)c1)N[C@H]1CCOC1=O [E31]	QscR (Pseudomonas aeruginosa)	58
O=C(Cc1cccc(F)c1)N[C@H]1CCOC1=O [C3]	QscR (Pseudomonas aeruginosa)	13
O=C(CC1CCCC1)N[C@H]1CCOC1=O [B12]	QscR (Pseudomonas aeruginosa)	12
O=C(Cc1cccc(Cl)c1)N[C@H]1CCOC1=O [C6]	QscR (Pseudomonas aeruginosa)	30
N#Cc1cccc(CC(=O)N[C@H]2CCOC2=O)c1 [E5]	QscR (Pseudomonas aeruginosa)	34
O=C(Cc1ccccc1)N[C@H]1CCOC1=O [C1]	QscR (Pseudomonas aeruginosa)	3
O=C(Cc1ccccc1I)N[C@H]1CCOC1=O [C12]	QscR (Pseudomonas aeruginosa)	5
O=C(N[C@H]1CCOC1=O)C1CCCC1 [compound 3]	QscR (Pseudomonas aeruginosa)	4
O=C(CCc1ccc(Cl)cc1)N[C@H]1CCOC1=O [E30]	QscR (Pseudomonas aeruginosa)	79
O=C(Cc1cccc(Br)c1)N[C@H]1CCOC1=O [C8]	QscR (Pseudomonas aeruginosa)	33
O=C(Cc1ccc(F)cc1)N[C@H]1CCOC1=O [C2]	QscR (Pseudomonas aeruginosa)	10
O=C(CCc1ccc([N+](=O)[O-])cc1)N[C@H]1CCOC1=O [E37]	QscR (Pseudomonas aeruginosa)	65
O=C(Cc1ccccc1F)N[C@H]1CCOC1=O [C4]	QscR (Pseudomonas aeruginosa)	0
O=C(Cc1cccc(I)c1)N[C@H]1CCOC1=O [C11]	QscR (Pseudomonas aeruginosa)	34
Cc1cccc(CC(=O)N[C@H]2CCOC2=O)c1 [E1]	QscR (Pseudomonas aeruginosa)	29
CSc1cccc(CC(=O)N[C@H]2CCOC2=O)c1 [E7]	QscR (Pseudomonas aeruginosa)	24
C=CCCC(=O)N[C@H]1CCOC1=O [D8]	QscR (Pseudomonas aeruginosa)	13
